Reference for the values: paper PMC11062922

- Test system: PTK6
- Parameters: species or system human, MV4-11 + K-562 + COLO205 + SK-N-BE2 + OVCAR-8
- ASSAY_CONTEXT: read-out: apparent Kd; compound concentrations:100 nM and 1000 nM (sheet 'Samples'); n = 1
potency estimated from few doses strictly under 500 nM means Satisfied; at 500 nM or over means Not satisfied.

Example cases with answers are listed next.
compound="CCN(CC)CCOc1ccc(Nc2ncc3cc(-c4c(Cl)cccc4Cl)c(=O)n(C)c3n2)cc1 [SB-601273]" label=Satisfied
compound="O=C1NC(=O)C(N2CCc3ccccc32)=C1c1ccccc1Cl [SB-373598]" label="Not satisfied"
compound="CNC(=O)Oc1cc(C)c(/C=C/c2cncc(C(=O)NC)c2)c(C)c1 [GW432441X]" label=Satisfied
compound="Cn1cc(-c2cnc(N)c3c(-c4ccc5c(c4)CCN5C(=O)Cc4ccccc4)csc23)cn1 [GSK2593074A]" label="Not satisfied"

[ask] Identify whether the compound Cl.Cl.NCC(C(=O)Nc1cc(Br)c(-c2ccnc3[nH]ccc23)s1)c1ccccc1.NCC(C(=O)Nc1cc(Br)c(-c2ccnc3[nH]ccc23)s1)c1ccccc1 (stereo not drawn) [GSK1269851A] records potency estimated from few doses below 500 nM.
[reply] Not satisfied

----------
- System: MAP4K1
- Set-up: species or system human, MV4-11 + K-562 + COLO205 + SK-N-BE2 + OVCAR-8
- ASSAY_CONTEXT: read-out: apparent Kd; compound concentrations:100 nM and 1000 nM (sheet 'Samples'); n = 1
RECORDED_METRIC: potency estimated from few doses (nM)
Answers are plain numbers, in nM.

Here's what some known entries look like.
molecule=COc1cc[nH]c1/C=C1\C(=O)Nc2ccc(F)c(C#C[C@@H](O)[C@@H](N)[C@@H](C)O)c21 numeric_value=1060
molecule="O=C(O)C(F)(F)F.O=c1[nH]ccc2nc(N[C@@H]3CCNC3)nc(Nc3cc(Cl)cc(Cl)c3)c12 [GSK2188764A]" numeric_value=1030
molecule="CNC(=O)c1ccccc1Nc1nc(Nc2ccc(N3CCOCC3)cc2)ncc1Cl.Cl [GSK1576028A]" numeric_value=387

We next turn to a different molecule, shown below.
In plain terms, Cn1cc(-c2cnc(N)c3c(-c4ccc5c(c4)CCN5C(=O)Cc4ccccc4)csc23)cn1 [GSK2593074A] has a documented potency estimated from few doses of 1630

----------
- Test system: PLK4
- Design: species or system human, MV4-11 + K-562 + COLO205 + SK-N-BE2 + OVCAR-8
- ASSAY_CONTEXT: read-out: apparent Kd; compound concentrations:100 nM and 1000 nM (sheet 'Samples'); n = 1
RECORDED_METRIC: potency estimated from few doses
Note: state the figure and append the unit.

compound=CS(=O)(=O)CCn1c(=O)c(Oc2ccc(F)cc2F)cc2cnc(NC3CCOCC3)nc21 test_system=PLK4 result="568 nM"
compound="Cc1ccc2c(-c3ccncc3)c(-c3ccc(F)cc3)nn2c1.Cl [GW461484A]" test_system=PLK4 result="428 nM"
compound="COc1ccc2[nH]c3c4[nH]c5ccc(OC)cc5c4c4c(c3c2c1)C(=O)NC4=O [GW296115X]" test_system=PLK4 result="581 nM"
compound="NCCNS(=O)(=O)c1ccc(-c2ccnc3[nH]ccc23)cc1 [GSK977617A]" test_system=PLK4 result="584 nM"
compound="CC(C)Oc1ccc2c(-c3ccnc(Nc4ccc(N5CCN(C)CC5)cc4)n3)cnn2n1 [GW696155X]" test_system=PLK4 result="506 nM"

Please state potency estimated from few doses for every compound in the list that follows.
1. CN1C[C@@H]2Cn3c(c(C4=C(c5cn(C)c6ccccc56)C(=O)NC4=O)c4ccccc43)C[C@H]2C1.Cl
2. CNC(=O)c1ccccc1Nc1nc(Nc2ccc(N3CCOCC3)cc2)ncc1Cl.Cl [GSK1576028A]

[reply]
["500 nM", "13.4 nM"]

----------
- Tested on: RPS6KA6
- Set-up: species or system human, MV4-11 + K-562 + COLO205 + SK-N-BE2 + OVCAR-8
- ASSAY_CONTEXT: read-out: apparent Kd; compound concentrations:100 nM and 1000 nM (sheet 'Samples'); n = 1
RECORDED_METRIC: potency estimated from few doses (nM)
Numbers only, in nM.

Here's what some known entries look like.
compound="COc1cc2ncn(-c3cc(OCCCc4ccccc4)c(C(N)=O)s3)c2cc1OC [GSK205189A]" test_system=RPS6KA6 recorded_metric="potency estimated from few doses" numeric_value=907
compound="NCCNS(=O)(=O)c1ccc(-c2ccnc3[nH]ccc23)cc1 [GSK977617A]" test_system=RPS6KA6 recorded_metric="potency estimated from few doses" numeric_value=373
compound=Cl.Cn1cc(C2=C(c3cn(CCCN)c4ccccc34)C(=O)NC2=O)c2ccccc21 test_system=RPS6KA6 recorded_metric="potency estimated from few doses" numeric_value=44.1

Tested system RPS6KA6; potency estimated from few doses recorded for Cc1ccc2c(-c3ccncc3)c(-c3ccc(F)cc3)nn2c1.Cl [GW461484A] was 248

----------
What potency estimated from few doses was measured for each of the following?
- Test system: ERBB3
- Parameters: species or system human, MV4-11 + K-562 + COLO205 + SK-N-BE2 + OVCAR-8
- ASSAY_CONTEXT: read-out: apparent Kd; compound concentrations:100 nM and 1000 nM (sheet 'Samples'); n = 1
Numbers only, in nM.

Here's what some known entries look like.
compound="COc1ccc(-c2cc3c(C)nc(N)nc3n([C@H]3CC[C@H](OCCO)CC3)c2=O)cn1 [PFE-PKIS_29]" numeric_value=453
compound="CNc1nc(-c2ccc3c(N)n[nH]c3c2)cc(N2C[C@@H](C(=O)NC3CCCCC3)CC[C@H]2C)n1 [GSK2334470]" numeric_value=1360
compound="CCc1cc(Nc2nccc(-c3c(-c4ccc(OC)c(C(=O)Nc5c(F)cccc5F)c4)nc4ccccn34)n2)c(OC)cc1N1CCC(N2CCN(S(C)(=O)=O)CC2)CC1 [GSK1904529]" numeric_value=1360
compound="C[C@@H]1CC[C@@H](C(=O)Nc2ccccc2)CN1c1cc(-c2ccc3c(N)n[nH]c3c2)nc(N)n1 [GSK2286062A]" numeric_value=1760

Please state potency estimated from few doses for every compound in the list that follows.
1. CCn1c(-c2nonc2N)nc2c(C#CC(C)(C)O)ncc(OC[C@@H]3CCCN3)c21.O=C(O)C(F)(F)F [GSK614526A]
2. Cl.O=C(Nc1ccc(Oc2ccc3[nH]c(NC(=O)c4ccco4)nc3c2)cc1)Nc1cc(C(F)(F)F)ccc1F [GW683134A_KCGS]

[reply]
[1810, 1130]

----------
- Test system: PRKX;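 note: competition pulldown with Kinobeads ε in cell lysates, inhibitor preincubated 45 min at 4 °C, bound kinases quantified by LC–MS/MS against DMSO control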
- Set-up: species or system human, MV4-11 + K-562 + COLO205 + SK-N-BE2 + OVCAR-8
- ASSAY_CONTEXT: compound concentrations:0.3nM, 1nM, 3nM, 10nM, 30nM, 100nM, 300nM, 1000nM,R2:0.94127289372754697,slope:1.4629649923763099,EC50 Standard Error, by the legend:Standard error of the EC50 estimation as provided by the drc package.
RECORDED_METRIC: pEC50
One number for each entry, as −log10 of the molar value.

In plain terms, CCn1c(-c2nonc2N)nc2c(C#CC(C)(C)O)nc(OCCNC)cc21.Cl [GSK949675A] has a documented pEC50 of 6.66

----------
What potency estimated from few doses was measured for each of the following?
- Test system: PDGFRB
- Parameters: species or system human, MV4-11 + K-562 + COLO205 + SK-N-BE2 + OVCAR-8
- ASSAY_CONTEXT: read-out: apparent Kd; compound concentrations:100 nM and 1000 nM (sheet 'Samples'); n = 1
Numbers only, in nM.

Here's what some known entries look like.
molecule="CNc1nc(-c2ccc3c(N)n[nH]c3c2)cc(N2C[C@@H](C(=O)NC3CCCCC3)CC[C@H]2C)n1 [GSK2334470]" test_system=PDGFRB numeric_value=1950
molecule="NC(=O)c1cc(-c2ccccc2)cc2c(C3CCNCC3)c[nH]c12 [GSK301362A]" test_system=PDGFRB numeric_value=1630

We next turn to a different molecule, shown below.
In plain terms, CCN1CCN(CCCC(=O)Nc2n[nH]c3nc(-c4ccc(O)cc4)c(Br)cc23)CC1 [SB-731579] has a documented potency estimated from few doses of 145

----------
- Tested on: TNK2
- Design: species or system human, MV4-11 + K-562 + COLO205 + SK-N-BE2 + OVCAR-8
- ASSAY_CONTEXT: read-out: apparent Kd; compound concentrations:100 nM and 1000 nM (sheet 'Samples'); n = 1
Each entry falls in a class defined on potency estimated from few doses; the bands are lower range: < 0.2 µM; middle range: ≥ 0.2 µM and < 0.5 µM; upper range: ≥ 0.5 µM

compound="Cc1ccc2c(-c3ccnc(Nc4ccc(C(F)(F)F)cc4)n3)cnn2n1 [GW819776X]" label="upper range"
compound=CC(C)N1CCC(n2cnc(-c3ccc(F)cc3)c2-c2ccnc(N)n2)CC1 label="middle range"
compound=Cl.Cn1c(=O)c(Cc2ccc(F)cc2F)cc2cnc(NC3CCOCC3)nc21 label="middle range"
compound=O=C(Nc1n[nH]c2nc(-c3ccccc3O)ccc12)C1CC1 label="upper range"
compound="Cc1ccc2c(-c3ccncc3)c(-c3ccc(F)cc3)nn2c1.Cl [GW461484A]" label="middle range"

[ask] Each compound maps to one class by potency estimated from few doses. Which class for CCN(CC)CCOc1ccc(Nc2ncc3cc(-c4c(Cl)cccc4Cl)c(=O)n(C)c3n2)cc1 ?
[reply] lower range

[ask] Each compound maps to one class by potency estimated from few doses. Which class for CC(C)c1nc(-c2ccc(F)c(NS(=O)(=O)c3c(F)cccc3F)c2)c(-c2ccnc(Nc3ccc(N4CCOCC4)nc3)n2)s1 [GSK1804250A] ?
[reply] middle range

[ask] Each compound maps to one class by potency estimated from few doses. Which class for COc1cc2ncn(-c3cc(OCCCc4ccccc4)c(C(N)=O)s3)c2cc1OC [GSK205189A] ?
[reply] lower range
